# key: entry, value: Trimeric HA Binding RLU
Experimental System: recombinant soluble homotrimeric HA of A/Hong Kong/2108/03 (H9N2) (Influenza A virus A/Hong Kong/2108/2003 (H9N2))
Experiment Summary: HA microarray, BCC supernatant
Measurement Conditions: remark: other sources report otherwise
Report as a plain number; the unit RLU is understood.

TCN-521 (3280_D18) (antibody, V domains shown) VH: EVQLVQSGGGLVQPGGSLRLACVVSGFTVTSNYITWVRQAPGKGLEWVSVIYSHGRAYYSASVNGRFTISRHTSKNTVYLEMNSLRPEDTAVYYCAGGGLVGGYDEYFFDYWGQGTLATVSS VL: ETVLTQSPGTLSLTPGERATLSCRVGQSVSGSHLAWYQQKPGQAPRLLIYGASSRATGIPDRFGGSVSGTDFTLTISRLEPEDSAVYYCQQYGDSRYTFGQGTKLEIK; 93

# ---- query binder ----
q: # get_value(readout='Trimeric HA Binding RLU', item= TCN-528 (5087_P17) (antibody, V domains shown) VH: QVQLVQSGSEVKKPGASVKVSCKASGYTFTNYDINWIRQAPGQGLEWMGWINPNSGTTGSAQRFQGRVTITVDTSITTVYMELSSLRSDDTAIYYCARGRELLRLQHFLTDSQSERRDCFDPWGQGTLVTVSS VL: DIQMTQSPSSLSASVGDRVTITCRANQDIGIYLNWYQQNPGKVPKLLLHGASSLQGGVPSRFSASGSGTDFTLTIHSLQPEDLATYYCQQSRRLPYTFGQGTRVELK )
a: 42000
